Values compiled from the supplement of paper PMC6555819.

In this section we review reported PBM binding z-score values for a set of sequences.
Tested on: LXRa:RXRa (NR concentration 270 nM, RXRa partner concentration 90 nM)
Test: PBM binding z-score (relative to random genomic background probes); higher = stronger binding; sequences stand for … in GC…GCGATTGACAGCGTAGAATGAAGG
Give your answer as a number; write no unit.

The following sequences have reported results that may help.
{"biosequence": "AGTCAATGTTCACTAGGTAACGTAAGATTCAGCT", "assayed target": "LXRa:RXRa (NR concentration 270 nM, RXRa partner concentration 90 nM)", "measured": -0.205}
{"biosequence": "GCTTGTAGAGCAAGGTTAAGAAAGACTAAGCTAA", "assayed target": "LXRa:RXRa (NR concentration 270 nM, RXRa partner concentration 90 nM)", "measured": 0.442}
{"biosequence": "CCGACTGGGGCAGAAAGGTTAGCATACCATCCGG", "assayed target": "LXRa:RXRa (NR concentration 270 nM, RXRa partner concentration 90 nM)", "measured": 0.018}
{"biosequence": "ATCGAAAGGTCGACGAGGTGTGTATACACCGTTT", "assayed target": "LXRa:RXRa (NR concentration 270 nM, RXRa partner concentration 90 nM)", "measured": 3.28}
{"biosequence": "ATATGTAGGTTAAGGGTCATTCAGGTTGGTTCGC", "assayed target": "LXRa:RXRa (NR concentration 270 nM, RXRa partner concentration 90 nM)", "measured": 5.05}

Query: # PBM binding z-score lookup, item `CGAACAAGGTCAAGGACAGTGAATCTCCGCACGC`
Reply: 5.06

Query: Also `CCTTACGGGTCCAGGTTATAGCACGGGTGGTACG` , if possible.
Reply: -0.304

Query: Also `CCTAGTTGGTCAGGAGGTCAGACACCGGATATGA` , if possible.
Reply: 2.3

Query: Also `CTACCAAGGTGAACAAGCTCGTTGATTACTATTC` , if possible.
Reply: 0.121

Query: Also `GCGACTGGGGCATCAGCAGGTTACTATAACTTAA` , if possible.
Reply: -0.0377

Query: Also `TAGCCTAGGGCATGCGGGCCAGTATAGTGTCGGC` , if possible.
Reply: -0.599

Query: Also `TCTCGGAGGACACGAAGCTCAGAGCTTTCCAGAG` , if possible.
Reply: -0.167
